What pIC50 was measured for each of the following?
Biological target: p38α (Homo sapiens)
Construct: p38 MAP Kinases are recombinant human full-length proteins with an amino-terminal GST fusion; GST (N)
Experiment: p38 MAP Kinase assay, ATF2 phosphorylation (ELISA)
Conditions: 40 μM ATP
One number for each entry, as −log10 of the molar value.

{"compound": "OCCCCCNc1nccc(-c2c(-c3ccc(F)cc3)nc3occn23)n1", "measurement.target": "p38α (Homo sapiens)", "endpoint.name": "pIC50", "experimental.value": 7.64}
{"compound": "Nc1cc(-c2c(-c3ccc(F)cc3)nc3sccn23)nc(NC[C@H](O)c2ccccc2)n1", "measurement.target": "p38α (Homo sapiens)", "endpoint.name": "pIC50", "experimental.value": 5.59}

// for each compound in input: emit pIC50
1. CS(=O)(=O)N1CCC(Nc2nccc(-c3c(-c4ccccc4Cl)nc4occn34)n2)CC1
2. CS(=O)(=O)c1nccc(-c2c(-c3ccccc3)nc3sccn23)n1
3. CC(CN(C)C)Nc1nccc(-c2c(-c3ccc(F)cc3)nc3occn23)n1 (stereo not drawn)
4. CCCC(CO)Nc1nccc(-c2c(-c3ccc(F)cc3)nc3occn23)n1 (stereo not drawn)

output:
9.00
6.43
7.22
8.66

// for each compound in input: emit pIC50
1. O=C(Cc1csc2nc(-c3ccc(F)cc3)c(-c3ccnc(NCC4CCCCC4)n3)n12)NCC1CCCCC1
2. CCCNc1nc(N)cc(-c2c(-c3ccc(F)cc3)nc3sccn23)n1
3. Clc1ccccc1-c1nc2occn2c1-c1ccnc(NC2CCNCC2)n1

output:
1: 6.00; 2: 5.88; 3: 7.84

====

Molecular target: p38β (Homo sapiens, UniProt Q15759)
Construct: p38 MAP Kinases are recombinant human full-length proteins with an amino-terminal GST fusion; GST (N)
Sequence (Q15759 whole entry, the tested form may be a part): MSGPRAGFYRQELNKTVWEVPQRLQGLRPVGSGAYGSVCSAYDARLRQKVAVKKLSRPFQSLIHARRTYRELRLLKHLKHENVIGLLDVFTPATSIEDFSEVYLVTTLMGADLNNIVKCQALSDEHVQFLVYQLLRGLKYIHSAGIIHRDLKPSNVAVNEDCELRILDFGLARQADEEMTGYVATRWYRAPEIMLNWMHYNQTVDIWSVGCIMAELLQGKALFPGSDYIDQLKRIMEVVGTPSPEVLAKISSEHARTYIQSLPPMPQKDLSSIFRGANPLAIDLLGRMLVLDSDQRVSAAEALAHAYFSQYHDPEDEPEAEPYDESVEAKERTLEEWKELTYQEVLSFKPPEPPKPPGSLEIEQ
Assay: Kinase selectivity, ATF2 phosphorylation ELISA
endpoint.name: pIC50
Answers are plain numbers, as −log10 of the molar value.

{"structure.smiles": "CC(=O)N1CCC(Nc2nccc(-c3c(-c4ccc(F)cc4)nc4occn34)n2)CC1", "experimental.value": 8.20}
{"structure.smiles": "Fc1ccc(-c2nc3occn3c2-c2ccnc(N[C@@H]3CN4CCC3CC4)n2)cc1", "experimental.value": 6.94}
{"structure.smiles": "CS(=O)(=O)N1CCC(Nc2nccc(-c3c(-c4ccc(F)cc4)nc4occn34)n2)CC1", "experimental.value": 8.74}

Turning now to a further record.
The value of pIC50 recorded for Fc1ccc(-c2nc3occn3c2-c2ccnc(NC3CCNCC3)n2)cc1 when tested on p38β (Homo sapiens, UniProt Q15759) reads 7.02

====

Target: ZAP-70 (Homo sapiens, UniProt P43403)
Construct: purchased Upstate (Charlottesville, Va.)
Sequence (P43403 whole entry, species assumed): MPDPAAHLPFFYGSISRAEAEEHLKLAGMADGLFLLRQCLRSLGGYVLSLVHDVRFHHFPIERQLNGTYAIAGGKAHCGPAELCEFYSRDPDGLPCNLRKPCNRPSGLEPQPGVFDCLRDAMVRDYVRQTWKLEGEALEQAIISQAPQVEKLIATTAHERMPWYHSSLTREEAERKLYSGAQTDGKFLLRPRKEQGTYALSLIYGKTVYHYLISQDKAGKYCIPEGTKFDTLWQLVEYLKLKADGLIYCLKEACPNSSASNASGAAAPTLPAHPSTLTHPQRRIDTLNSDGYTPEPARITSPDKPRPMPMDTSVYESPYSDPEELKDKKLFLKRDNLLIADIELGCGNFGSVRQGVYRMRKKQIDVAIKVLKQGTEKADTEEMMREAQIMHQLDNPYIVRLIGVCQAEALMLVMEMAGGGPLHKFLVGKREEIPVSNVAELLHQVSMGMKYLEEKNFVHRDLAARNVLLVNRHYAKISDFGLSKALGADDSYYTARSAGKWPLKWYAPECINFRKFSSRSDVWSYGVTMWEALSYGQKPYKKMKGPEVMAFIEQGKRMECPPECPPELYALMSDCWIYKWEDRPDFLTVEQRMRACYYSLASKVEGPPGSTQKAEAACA
Experiment: Broad selectivity panel, 32P incorporation
Type: biochemical
Conditions: 0.1 μM compound, 40 μM ATP; read-out: Percent inhibition ZAP-70
Description: Various compounds of the present invention are screened against a panel of 24 additional kinases (Upstate, Charlottesville, Va.). Compounds are tested 0.1 μM and 1 μM in reactions containing 40 μM ATP. Incorporation of radiolabeled phosphate (^32P) into each kinase substrate is measured in the presence and absence of test compound. Results are reported as the percent decrease in the amount of ^32P incorporated into the substrate in the presence of compound, compared to buffer control.
endpoint.name: inhibition at 0.1 µM

{"compound": "Fc1ccc(-c2nc3occn3c2-c2ccnc(N[C@H]3CN4CCC3CC4)n2)cc1 [LXXXVII]", "inhibition at 0.1 µM": "-51%"}

// for each compound in input: emit inhibition at 0.1 µM
1. Fc1ccc(-c2nc3occn3c2-c2ccnc(N[C@@H]3CN4CCC3CC4)n2)cc1 [LXXI]
2. Fc1ccc(-c2nc3occn3c2-c2ccnc(NC3CCNCC3)n2)cc1 [CCLXXX]
3. CC(=O)N1CCC(Nc2nccc(-c3c(-c4ccc(F)cc4)nc4occn34)n2)CC1 [CCLXXVIII]
4. CN(C)CC(C)(C)CNc1nccc(-c2c(-c3ccc(F)cc3)nc3occn23)n1 [CXIX]
5. CN1[C@@H]2CC[C@H]1C[C@@H](Nc1nccc(-c3c(-c4ccc(F)cc4)nc4occn34)n1)C2 [CCLXXXI]
6. CS(=O)(=O)N1CCC(Nc2nccc(-c3c(-c4ccc(F)cc4)nc4occn34)n2)CC1 [CCLXXIX]

output:
1: -17%; 2: -2%; 3: -53%; 4: 13%; 5: 12%; 6: 13%

====

Molecular target: FGFR3 (Homo sapiens)
Construct: purchased Upstate (Charlottesville, Va.)
Sequence (P22607 23-806, species assumed): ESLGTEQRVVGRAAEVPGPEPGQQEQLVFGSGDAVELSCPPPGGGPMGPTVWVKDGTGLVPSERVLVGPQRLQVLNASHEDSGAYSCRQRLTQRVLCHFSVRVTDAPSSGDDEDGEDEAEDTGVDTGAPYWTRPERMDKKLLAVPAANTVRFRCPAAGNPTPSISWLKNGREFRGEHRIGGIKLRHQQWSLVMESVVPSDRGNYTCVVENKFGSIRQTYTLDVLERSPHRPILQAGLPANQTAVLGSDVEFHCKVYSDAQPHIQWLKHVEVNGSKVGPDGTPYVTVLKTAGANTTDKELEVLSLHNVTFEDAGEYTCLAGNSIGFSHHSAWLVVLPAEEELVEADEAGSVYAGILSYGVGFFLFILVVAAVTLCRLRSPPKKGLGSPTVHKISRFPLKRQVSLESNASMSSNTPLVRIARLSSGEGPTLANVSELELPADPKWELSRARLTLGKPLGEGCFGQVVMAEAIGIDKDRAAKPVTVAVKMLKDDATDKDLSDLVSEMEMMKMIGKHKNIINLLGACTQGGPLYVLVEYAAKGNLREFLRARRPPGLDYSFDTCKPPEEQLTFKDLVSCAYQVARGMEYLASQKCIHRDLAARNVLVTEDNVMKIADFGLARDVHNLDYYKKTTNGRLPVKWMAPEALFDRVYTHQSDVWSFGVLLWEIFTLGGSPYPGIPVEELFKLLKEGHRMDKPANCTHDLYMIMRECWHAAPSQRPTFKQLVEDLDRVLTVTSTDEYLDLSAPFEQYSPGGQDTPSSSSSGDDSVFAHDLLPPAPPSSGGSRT
Assay: Broad selectivity panel, 32P incorporation
Assay type: biochemical
Conditions: 0.1 μM compound, 40 μM ATP; read-out: Percent inhibition FGFR3
Procedure: Various compounds of the present invention are screened against a panel of 24 additional kinases (Upstate, Charlottesville, Va.). Compounds are tested 0.1 μM and 1 μM in reactions containing 40 μM ATP. Incorporation of radiolabeled phosphate (^32P) into each kinase substrate is measured in the presence and absence of test compound. Results are reported as the percent decrease in the amount of ^32P incorporated into the substrate in the presence of compound, compared to buffer control.
endpoint.name: inhibition at 0.1 µM (%)
Give bare numbers, in %.

Examples with answers:
{"structure.smiles": "CS(=O)(=O)N1CCC(Nc2nccc(-c3c(-c4ccc(F)cc4)nc4occn34)n2)CC1", "endpoint.name": "inhibition at 0.1 µM", "u": "%", "experimental.value": 9}
{"structure.smiles": "CN(C)CC(C)(C)CNc1nccc(-c2c(-c3ccc(F)cc3)nc3occn23)n1", "endpoint.name": "inhibition at 0.1 µM", "u": "%", "experimental.value": 9}
{"structure.smiles": "CN1[C@@H]2CC[C@H]1C[C@@H](Nc1nccc(-c3c(-c4ccc(F)cc4)nc4occn34)n1)C2", "endpoint.name": "inhibition at 0.1 µM", "u": "%", "experimental.value": -27}

Turning now to a further record.
In plain terms, Fc1ccc(-c2nc3occn3c2-c2ccnc(NC3CCNCC3)n2)cc1 has a documented inhibition at 0.1 µM of -1

====

Biological target: p38α (Homo sapiens, UniProt Q16539)
Construct: p38 MAP Kinases are recombinant human full-length proteins with an amino-terminal GST fusion; GST (N)
Sequence (Q16539 whole entry, the tested form may be a part): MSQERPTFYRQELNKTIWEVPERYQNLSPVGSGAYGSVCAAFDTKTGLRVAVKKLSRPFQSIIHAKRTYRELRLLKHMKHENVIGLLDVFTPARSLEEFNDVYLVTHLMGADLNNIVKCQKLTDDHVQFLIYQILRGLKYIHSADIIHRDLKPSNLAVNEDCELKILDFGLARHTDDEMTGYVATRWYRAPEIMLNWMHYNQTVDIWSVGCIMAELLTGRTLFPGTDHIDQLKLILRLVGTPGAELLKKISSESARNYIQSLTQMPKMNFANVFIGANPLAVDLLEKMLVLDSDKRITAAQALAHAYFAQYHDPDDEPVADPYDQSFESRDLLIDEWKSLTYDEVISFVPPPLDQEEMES
Test: p38 MAP Kinase assay, ATF2 phosphorylation (ELISA)
Conditions: 40 μM ATP
pIC50: −log10 of the molar value.
Note that class boundaries on pIC50 are bin 0: < 7; bin 1: ≥ 7 and < 8; bin 2: ≥ 8

Worked cases, answers included:
{"molecule": "CCC(CO)(CO)Nc1nccc(-c2c(-c3ccc(F)cc3)nc3occn23)n1", "assigned.category": "bin 1"}
{"molecule": "CCOC(=O)N1CCC(Nc2nccc(-c3c(-c4ccc(F)cc4)nc4occn34)n2)CC1", "assigned.category": "bin 2"}
{"molecule": "CC(C)[C@@H](CO)Nc1nccc(-c2c(-c3ccc4c(c3)OCCO4)nc3sccn23)n1", "assigned.category": "bin 0"}

input: Lab note: which band did CSc1nccc(-c2c(-c3ccccc3)nc3sccn23)n1 land in?
output: bin 0

input: Lab note: which band did OC1(CNc2nccc(-c3c(-c4ccc(F)cc4)nc4sccn34)n2)CCCCC1 land in?
output: bin 1

input: Lab note: which band did CCCNc1nccc(-c2c(-c3ccc(F)cc3)nc3occn23)n1 land in?
output: bin 2

====

Molecular target: p38α (Homo sapiens, UniProt Q16539)
Construct: p38 MAP Kinases are recombinant human full-length proteins with an amino-terminal GST fusion; GST (N)
Assay: p38 MAP Kinase assay, ATF2 phosphorylation (ELISA)
Conditions: 40 μM ATP
endpoint.name: IC50

Examples with answers:
{"compound": "Fc1ccc(-c2nc3occn3c2-c2ccnc(N[C@H]3CN4CCC3CC4)n2)c(F)c1 [CCCIV]", "measurement.target": "p38α (Homo sapiens, UniProt Q16539)", "experimental.value": "3.8 nM"}
{"compound": "Oc1ccc(C(O)CNc2nccc(-c3c(-c4ccc(F)cc4)nc4occn34)n2)cc1 (stereo not drawn) [LXXX]", "measurement.target": "p38α (Homo sapiens, UniProt Q16539)", "experimental.value": "82.5 nM"}

Turning now to a further record.
In plain terms, OCCN1CCN(c2nccc(-c3c(-c4ccc(F)cc4)nc4sccn34)n2)CC1 [CLXXXIII] has a documented IC50 of 1000 nM

====

Target: MAPK1 (Homo sapiens)
Construct: purchased Upstate (Charlottesville, Va.)
Sequence (P27361 whole entry): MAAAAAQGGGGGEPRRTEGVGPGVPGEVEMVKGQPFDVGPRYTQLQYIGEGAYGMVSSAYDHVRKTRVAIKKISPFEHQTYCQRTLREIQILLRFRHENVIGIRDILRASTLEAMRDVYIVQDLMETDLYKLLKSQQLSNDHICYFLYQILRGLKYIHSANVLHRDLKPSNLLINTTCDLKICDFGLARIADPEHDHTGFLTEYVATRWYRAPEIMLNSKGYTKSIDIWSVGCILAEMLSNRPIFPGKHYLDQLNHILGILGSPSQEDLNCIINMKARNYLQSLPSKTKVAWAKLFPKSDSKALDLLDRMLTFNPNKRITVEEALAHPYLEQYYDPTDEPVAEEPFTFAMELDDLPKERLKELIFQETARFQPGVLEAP
Test: Broad selectivity panel, 32P incorporation
Assay type: biochemical
Conditions: 1 μM compound, 40 μM ATP; read-out: Percent inhibition MAPK1
endpoint.name: inhibition at 1 µM (%)
Numbers only, in %.

{"structure.smiles": "CN1[C@@H]2CC[C@H]1C[C@@H](Nc1nccc(-c3c(-c4ccc(F)cc4)nc4occn34)n1)C2", "inhibition at 1 µM (%)": 49}
{"structure.smiles": "Fc1ccc(-c2nc3occn3c2-c2ccnc(NC3CCNCC3)n2)cc1", "inhibition at 1 µM (%)": 45}
{"structure.smiles": "Fc1ccc(-c2nc3occn3c2-c2ccnc(N[C@H]3CN4CCC3CC4)n2)cc1", "inhibition at 1 µM (%)": 27}

In plain terms, Fc1ccc(-c2nc3occn3c2-c2ccnc(N[C@@H]3CN4CCC3CC4)n2)cc1 has a documented inhibition at 1 µM of 56
